pIC50: −log10 of the molar value.
Quick note: these are pIC50 numbers for system: PI3K α (Homo sapiens (Human), UniProt P42336)
Sequence (P42336 whole entry): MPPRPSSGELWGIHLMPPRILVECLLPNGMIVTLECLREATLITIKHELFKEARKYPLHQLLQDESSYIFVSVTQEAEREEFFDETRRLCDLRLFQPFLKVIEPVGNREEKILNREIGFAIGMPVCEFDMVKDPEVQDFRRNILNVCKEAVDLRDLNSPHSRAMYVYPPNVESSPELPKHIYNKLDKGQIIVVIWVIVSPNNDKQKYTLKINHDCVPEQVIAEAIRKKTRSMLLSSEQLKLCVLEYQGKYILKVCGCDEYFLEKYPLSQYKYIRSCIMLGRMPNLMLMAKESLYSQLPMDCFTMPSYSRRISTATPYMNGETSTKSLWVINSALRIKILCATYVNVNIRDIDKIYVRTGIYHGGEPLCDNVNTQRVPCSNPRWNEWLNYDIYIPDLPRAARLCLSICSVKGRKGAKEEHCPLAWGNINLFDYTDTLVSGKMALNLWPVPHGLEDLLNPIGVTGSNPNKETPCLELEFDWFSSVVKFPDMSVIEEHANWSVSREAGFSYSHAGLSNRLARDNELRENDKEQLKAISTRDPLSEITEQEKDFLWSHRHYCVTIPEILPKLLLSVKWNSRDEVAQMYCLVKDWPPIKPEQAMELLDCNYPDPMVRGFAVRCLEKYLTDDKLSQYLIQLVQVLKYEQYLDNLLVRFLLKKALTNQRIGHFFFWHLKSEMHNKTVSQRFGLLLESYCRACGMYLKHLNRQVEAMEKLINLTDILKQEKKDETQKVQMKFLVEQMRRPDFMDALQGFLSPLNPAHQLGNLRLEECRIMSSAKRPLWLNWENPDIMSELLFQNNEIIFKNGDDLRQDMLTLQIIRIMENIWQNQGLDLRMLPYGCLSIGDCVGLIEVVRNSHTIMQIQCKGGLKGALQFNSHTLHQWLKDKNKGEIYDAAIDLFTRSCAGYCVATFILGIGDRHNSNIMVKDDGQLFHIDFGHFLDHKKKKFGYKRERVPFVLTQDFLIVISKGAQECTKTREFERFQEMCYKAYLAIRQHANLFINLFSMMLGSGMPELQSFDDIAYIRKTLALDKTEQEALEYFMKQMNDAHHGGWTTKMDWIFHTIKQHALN
Sequence (P27986 whole entry partner): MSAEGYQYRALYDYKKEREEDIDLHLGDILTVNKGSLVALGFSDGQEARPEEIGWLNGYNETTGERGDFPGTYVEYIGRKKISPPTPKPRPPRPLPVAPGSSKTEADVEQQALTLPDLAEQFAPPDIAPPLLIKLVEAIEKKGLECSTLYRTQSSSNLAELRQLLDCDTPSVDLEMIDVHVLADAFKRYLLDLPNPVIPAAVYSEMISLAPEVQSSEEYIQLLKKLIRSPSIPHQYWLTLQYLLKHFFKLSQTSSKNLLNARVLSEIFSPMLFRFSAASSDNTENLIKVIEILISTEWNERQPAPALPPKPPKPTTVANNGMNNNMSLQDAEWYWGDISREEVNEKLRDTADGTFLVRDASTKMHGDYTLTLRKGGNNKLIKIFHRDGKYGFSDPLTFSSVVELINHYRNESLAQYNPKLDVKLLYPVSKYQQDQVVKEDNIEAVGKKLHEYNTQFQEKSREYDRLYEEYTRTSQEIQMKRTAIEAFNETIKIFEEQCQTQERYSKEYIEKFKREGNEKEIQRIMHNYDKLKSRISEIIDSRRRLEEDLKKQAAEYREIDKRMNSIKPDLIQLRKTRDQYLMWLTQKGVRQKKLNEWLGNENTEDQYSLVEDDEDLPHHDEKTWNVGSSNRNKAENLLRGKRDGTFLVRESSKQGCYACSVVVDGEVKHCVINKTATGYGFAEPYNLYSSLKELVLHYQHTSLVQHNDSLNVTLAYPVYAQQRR

Challenge: // query pIC50 value for entry `COc1ccc(-c2ccc3ncc(C(=O)N4CCOCC4)n3c2)cc1NS(=O)(=O)c1ccccc1`
Response given: > 5.00

Challenge: // query pIC50 value for entry `Nc1nc2cc(-c3ccc4ncc(N5CC(N6CCN(CC7CC7)CC6)C5)nc4c3)ccc2o1`
Response given: > 7.00

Challenge: // query pIC50 value for entry `CC(=O)Nc1cn2cc(-c3ccc4oc(N)nc4c3)ccc2n1`
Response given: > 7.00

Challenge: // query pIC50 value for entry `Nc1nc2cc(-c3cnc4ncc(-c5ccncc5)n4c3)ccc2o1`
Response given: < 5.00

Challenge: // query pIC50 value for entry `Nc1nc2cc(-c3ccc4ncc(-c5cn[nH]c5)nc4c3)ccc2o1`
Response given: > 7.00
